Source: PubChem BioAssay (NCI)

Assignment: determine reported GI50 for the given compounds.
tested on: T-47D breast; test: NCI tumour cell line growth inhibition, 48 h

Below, each entry is followed by its recorded GI50 result.
>>> df
                                   compound        system  observed
0               CC(=O)OCc1cc[c]([Hg][Cl])o1  T-47D breast   1.36 µM
1            Cc1cccc(Nc2ncc(-c3ccccc3)o2)c1  T-47D breast   > 25 µM
2         COc1cc(/C=C/[N+](=O)[O-])cc(OC)c1  T-47D breast   2.17 µM
3  O=C(O)[C@@H](Cc1ccccc1)NS(=O)(=O)c1ccc(-c2ccccc2)cc1  T-47D breast  > 100 µM
4              Nc1ncnc2c1ncn2Cc1ccc(CCl)cc1  T-47D breast      8 µM

For each of the compounds below, note its GI50.
1. OCC1OC(n2cnc3cc(Cl)c(Cl)cc32)C(O)C1O (stereo not given)
2. Cc1cc(C2CC(O)C(CO)O2)c(Br)cc1Br (stereo not given)

Ans.
["26.1 µM", "> 100 µM"]

For each of the compounds below, note its GI50.
1. CN1CCN(CCCn2c3c(sc4ncccc43)c(=O)n3nnc(-c4ccccc4)c23)CC1
2. O=[N+]([O-])c1ccc(NC(c2ccccc2)c2ccc3cccnc3c2O)cc1 (stereo not given)
3. CC1(/C=C/c2ccc(-c3ccccc3)cc2)CCn2cnc3ncnc(c32)N1O (stereo not given)
4. Nc1cc2c3ccccc3ccc2c2ccccc12
5. O=C(Nc1n[nH]c2cc(-c3ccc(F)cc3)ccc12)C1CC1
6. O=C(Nc1c(Cl)cccc1Cl)Oc1cccc2cccnc12

Ans.
1: 20.2 µM; 2: 0.633 µM; 3: 0.462 µM; 4: > 38.1 µM; 5: 6.37 µM; 6: 3.29 µM

For each of the compounds below, note its GI50.
1. C=C1C(=O)O[C@H]2[C@H]1CC/C(COC(=O)NCCc1ccc(Br)cc1)=C\CC[C@@]1(C)O[C@@H]21
2. CC(C)Cc1cc(-c2cccn2C)c(C#N)c(=O)[nH]1

Ans.
["1.38 µM", "> 100 µM"]
